List of Kd values.
Target: T1, cynomolgus NKp46 (cynomolgus monkey, UniProt Q95JB9 22-306)
T1 construct: also called cyno NKp46; cynomolgus monkey NKp46
T1 sequence (Q95JB9 22-306 limits assumed): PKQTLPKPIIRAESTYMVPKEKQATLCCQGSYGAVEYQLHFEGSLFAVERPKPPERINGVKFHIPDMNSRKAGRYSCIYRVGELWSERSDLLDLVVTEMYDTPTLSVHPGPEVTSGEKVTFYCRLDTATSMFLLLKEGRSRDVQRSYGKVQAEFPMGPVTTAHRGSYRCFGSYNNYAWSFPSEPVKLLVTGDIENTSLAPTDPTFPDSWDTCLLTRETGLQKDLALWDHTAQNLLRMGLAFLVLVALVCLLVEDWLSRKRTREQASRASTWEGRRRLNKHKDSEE
Assay: flow cytometry, HEK293F cells transfected with cyno NKp46
Method: Binding of NKp46-binding polypeptides formatted as VHH-Fc fusion proteins was assessed by flow cytometry. An IgG1-Fc lacking a hinge, or a homodimeric Fc (FIG. 1I-1J) was used (the Fc lacking a hinge is annotated as Fc*). […] After one additional wash with 150 μL of FACS buffer, bound antibody was detected by flow cytometry. […] NKp46 transfected cells were gated on as GFP positive, and polypeptide binding was measured as median fluorescence at 647 nm.

Binder | Kd
NKp46-hz5D7v14-Fc* (Fc fusion, VHH-Fc fusion with an IgG1 Fc lacking a hinge (Fc*)) EVQLVESGGGEVQPGGSLRLSCAASGRTFASAAMGWFRQAPGKEREFVAAISRSDDTYYAESVKGRFTISRDNAKNTVYLQMSSLRAEDTAVYYCAAVVPTYGSSIYVHSAAYNYWGQGTLVTVKPGGGGPSVFLFPPKPKDTLMISRTPEVTCVVVDVSHEDPEVKFNWYVDGVEVHNAKTKPREEQYNSTYRVVSVLTVLHQDWLNGKEYKCKVSNKALPAPIEKTISKAKGQPREPQVYTLPPSRDELTKNQVSLTCLVKGFYPSDIAVEWESNGQPENNYKTTPPVLDSDGSFFLYSKLTVDKSRWQQGNVFSCSVMHEALHNHYTQKSLSLSPG | 252 pM
NKp46-hz5D7v15-Fc* (Fc fusion, VHH-Fc fusion with an IgG1 Fc lacking a hinge (Fc*)) EVQLVESGGGEVQPGGSLRLSCAASGRTFASAAMGWFRQAPGKEREFVAAISRSDDTYYAESVKGRFTISRDNAKNTVYLQMSSLRAEDTAVYYCAAVVPTYGNAIYVHSAAYNYWGQGTLVTVKPGGGGPSVFLFPPKPKDTLMISRTPEVTCVVVDVSHEDPEVKFNWYVDGVEVHNAKTKPREEQYNSTYRVVSVLTVLHQDWLNGKEYKCKVSNKALPAPIEKTISKAKGQPREPQVYTLPPSRDELTKNQVSLTCLVKGFYPSDIAVEWESNGQPENNYKTTPPVLDSDGSFFLYSKLTVDKSRWQQGNVFSCSVMHEALHNHYTQKSLSLSPG | 428 pM
NKp46-hz5D7v12-Fc* (Fc fusion, VHH-Fc fusion with an IgG1 Fc lacking a hinge (Fc*)) EVQLVESGGGEVQPGGSLRLSCAASGRTFASAAMGWFRQAPGKEREFVAAISRSDDTYYAESVKGRFTISRDNAKNTVYLQMSSLRAEDTAVYYCAAVVPTYGSNIYVHSAAYNYWGQGTLVTVKPGGGGPSVFLFPPKPKDTLMISRTPEVTCVVVDVSHEDPEVKFNWYVDGVEVHNAKTKPREEQYNSTYRVVSVLTVLHQDWLNGKEYKCKVSNKALPAPIEKTISKAKGQPREPQVYTLPPSRDELTKNQVSLTCLVKGFYPSDIAVEWESNGQPENNYKTTPPVLDSDGSFFLYSKLTVDKSRWQQGNVFSCSVMHEALHNHYTQKSLSLSPG | 455 pM
NKp46-hz5D7v3-Fc* (Fc fusion, VHH-Fc fusion with an IgG1 Fc lacking a hinge (Fc*); also called NKp46-bz5D7v3-Fc*) EVQLVESGGGEVQPGGSLRLSCAASGRTFASAAMGWFRQAPGKEREFVAAISRSDDTYYAESVKGRFTISRDNAKNTVYLQMSSLRAEDTAVYYCAAVVPTYGNNIYVHSAAYNYWGQGTLVTVKPGGGGPSVFLFPPKPKDTLMISRTPEVTCVVVDVSHEDPEVKFNWYVDGVEVHNAKTKPREEQYNSTYRVVSVLTVLHQDWLNGKEYKCKVSNKALPAPIEKTISKAKGQPREPQVYTLPPSRDELTKNQVSLTCLVKGFYPSDIAVEWESNGQPENNYKTTPPVLDSDGSFFLYSKLTVDKSRWQQGNVFSCSVMHEALHNHYTQKSLSLSPG | 773 pM
